The reported measurements were obtained from PubChem BioAssay (NCATS).

measured_target: Rap guanine nucleotide exchange factor 4 (Homo sapiens) (UniProt Q8WZA2)
Sequence (Q8WZA2 whole entry, looked up): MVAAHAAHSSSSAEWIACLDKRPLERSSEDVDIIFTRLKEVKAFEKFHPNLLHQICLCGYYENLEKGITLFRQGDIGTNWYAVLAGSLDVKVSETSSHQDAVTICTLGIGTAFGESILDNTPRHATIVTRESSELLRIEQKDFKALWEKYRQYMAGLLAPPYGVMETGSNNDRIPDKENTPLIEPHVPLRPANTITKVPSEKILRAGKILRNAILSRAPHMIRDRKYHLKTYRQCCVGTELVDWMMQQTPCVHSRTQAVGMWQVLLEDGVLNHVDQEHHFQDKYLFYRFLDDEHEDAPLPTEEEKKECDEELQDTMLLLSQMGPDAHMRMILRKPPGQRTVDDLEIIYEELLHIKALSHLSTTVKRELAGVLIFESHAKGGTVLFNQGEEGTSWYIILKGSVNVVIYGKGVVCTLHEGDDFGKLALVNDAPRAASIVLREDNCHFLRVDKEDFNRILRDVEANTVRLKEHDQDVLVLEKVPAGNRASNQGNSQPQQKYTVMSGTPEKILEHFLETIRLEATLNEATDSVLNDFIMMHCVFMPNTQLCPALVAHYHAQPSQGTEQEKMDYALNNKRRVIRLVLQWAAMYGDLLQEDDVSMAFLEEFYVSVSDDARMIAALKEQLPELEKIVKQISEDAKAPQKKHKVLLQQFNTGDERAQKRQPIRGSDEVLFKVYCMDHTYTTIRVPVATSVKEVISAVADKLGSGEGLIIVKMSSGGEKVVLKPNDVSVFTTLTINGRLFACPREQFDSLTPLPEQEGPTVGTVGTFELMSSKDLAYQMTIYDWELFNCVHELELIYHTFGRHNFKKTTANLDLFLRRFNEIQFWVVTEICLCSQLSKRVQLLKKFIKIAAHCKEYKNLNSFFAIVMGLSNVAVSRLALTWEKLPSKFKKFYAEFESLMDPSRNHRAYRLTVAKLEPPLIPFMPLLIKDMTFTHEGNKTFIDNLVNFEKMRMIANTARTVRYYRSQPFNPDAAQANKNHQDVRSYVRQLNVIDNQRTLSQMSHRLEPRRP
assay_remarks: Confirmatory qHTS for antagonist of cAMP-regulated guanine nucleotide exchange factor 4 (EPAC2) (AID 1645885); further: nearly all actives have a fitted effect of over 25% in size
condition_set: EPAC2 Rap1B-BODIPY-GDP exchange fluorescence, biochemical; series mostly up to 12.7 µM
Records with an inconclusive call do not appear. Activity calls are given as the source filed them. The call rests on the fitted dose curve; in most records, active means well fitted inhibition curve with a large enough effect; inconclusive means small, poorly fitted or top-dose-only effect; inactive means no such curve, though single readings can be large or run the other way.
Labels: True (active), False (inactive)

compound: COc1ccc(Nc2nnc(-c3ccc(O)cc3)c3ccccc23)cc1
label_class: False
--
compound: Cc1ccc(-c2cn3nc(-c4ccccc4)c(-c4ccccc4)nc3n2)cc1
label_class: False
--
compound: COc1ccc(-c2nn(-c3ccccc3)cc2/C=C2/SC(=S)N(CCC(=O)O)C2=O)cc1
label_class: False
--
compound: O=C1NC(=O)C(=Cc2ccccc2[N+](=O)[O-])S1
label_class: False
--
compound: CCc1c(O)cc(=O)n(-c2ccccc2)c1-c1ccccc1
label_class: True
--
compound: COc1ccc(C(=O)c2ccc(Br)cc2)c(OC)c1OC
label_class: True
--
compound: O=[N+]([O-])c1ccc(Sc2cccc[n+]2[O-])c2nonc12
label_class: False
--
compound: Cc1ccc2[nH]cc(C(c3ccccc3)c3ccc(Cl)s3)c2c1 (configuration not stated)
label_class: False
--
compound: COc1ccc(OC)c(CNC(=O)CCCc2cn(C)c3ccccc23)c1
label_class: False
--
compound: CC(C)CNc1ncnc2onc(-c3ccc(Cl)cc3)c12
label_class: False
--
compound: CNC(=O)N(C1=NCC(C)(C)S1)c1ccc(F)c(Cl)c1
label_class: False
--
compound: COc1cccc(Cn2c(=O)c3ccccc3n3nc(C)cc23)c1
label_class: False
--
compound: CCOC(=O)c1cnc2ccc(C(=O)OC)cc2c1Nc1ccccc1CC
label_class: False
--
compound: COC(=O)c1ccc(-c2ccc(/C=N/N3C(=O)C4C5C=CC(C6CC56)C4C3=O)o2)cc1 (configuration not stated)
label_class: False
--
compound: CC(=O)Nc1cccc(/C(C)=N/Nc2ccc(S(=O)(=O)Nc3ccccc3C(=O)O)cc2[N+](=O)[O-])c1
label_class: False
--
compound: CC(C)CCn1c(Oc2ccc(Cl)cc2)nc2c1c(=O)n(C)c(=O)n2C
label_class: True
--
compound: N#Cc1c(SCC(=O)Nc2nncs2)sc2c(O)cc(=O)[nH]c12
label_class: False
--
compound: O=C(Nc1nc2ccccc2[nH]1)C1CCN(S(=O)(=O)c2cccs2)CC1
label_class: False
--
compound: CN(C)c1ccc(-c2[nH][nH]c(=O)c2NC(=O)c2ccccn2)cc1
label_class: False
--
compound: CCOC(=O)C1=C(C)NC(C)=C(C(=O)OCC)C1c1cccc([N+](=O)[O-])c1
label_class: False
--
compound: CCc1ccc(C(=O)c2cn(CC(=O)Nc3cccc(OC)c3)c3ccc(OC)cc3c2=O)cc1
label_class: False
--
compound: Cc1c2cc(O)c(=O)cc-2oc2cc(O)c(O)cc12
label_class: False

---

measured_target: Rap guanine nucleotide exchange factor 3 (Homo sapiens) (UniProt O95398)
Sequence (O95398 whole entry, looked up): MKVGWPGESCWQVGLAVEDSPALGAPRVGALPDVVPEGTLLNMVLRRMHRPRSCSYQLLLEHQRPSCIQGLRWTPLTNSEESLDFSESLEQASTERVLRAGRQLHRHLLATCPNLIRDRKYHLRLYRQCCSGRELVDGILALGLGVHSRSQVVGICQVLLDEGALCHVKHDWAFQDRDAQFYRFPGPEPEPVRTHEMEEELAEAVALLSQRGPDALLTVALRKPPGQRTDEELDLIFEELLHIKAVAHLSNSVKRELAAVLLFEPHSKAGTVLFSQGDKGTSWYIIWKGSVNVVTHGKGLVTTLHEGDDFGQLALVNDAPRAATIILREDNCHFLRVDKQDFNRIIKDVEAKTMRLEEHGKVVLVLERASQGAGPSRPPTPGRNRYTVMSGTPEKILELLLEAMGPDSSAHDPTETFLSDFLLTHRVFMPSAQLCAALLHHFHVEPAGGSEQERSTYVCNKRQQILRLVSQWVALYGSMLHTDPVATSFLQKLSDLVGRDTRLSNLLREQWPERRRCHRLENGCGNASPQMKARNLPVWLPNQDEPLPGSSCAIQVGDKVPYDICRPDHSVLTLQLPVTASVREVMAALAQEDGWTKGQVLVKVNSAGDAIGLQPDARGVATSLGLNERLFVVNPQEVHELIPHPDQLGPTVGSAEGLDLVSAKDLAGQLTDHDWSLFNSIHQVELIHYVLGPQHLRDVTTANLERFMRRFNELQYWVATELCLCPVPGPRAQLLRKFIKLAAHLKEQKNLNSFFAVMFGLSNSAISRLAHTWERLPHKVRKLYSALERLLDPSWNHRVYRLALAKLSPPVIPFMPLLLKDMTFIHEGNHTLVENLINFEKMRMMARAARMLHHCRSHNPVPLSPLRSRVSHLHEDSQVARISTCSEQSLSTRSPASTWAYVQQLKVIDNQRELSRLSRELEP
assay_remarks: Confirmatory qHTS for agonist of cAMP-regulated guanine nucleotide exchange factor 3 (EPAC1) (AID 1645881);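 further: EPAC1 catalysed release of BODIPY-GDP from Rap1B seen as fluorescence loss; nearly all actives have a fitted effect of over 75% in size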
condition_set: EPAC1 Rap1B BODIPY-GDP exchange fluorescence; series mostly up to 154 µM
Results filed as inconclusive are left out. The source made the active and inactive calls. Calls follow the shape of the dose curve; as a rule, active = well fitted activation curve with a large enough effect; inconclusive = small, poorly fitted or top-dose-only effect; inactive = no such curve, though single readings can be large or run the other way.
quantity_kind: outcome

compound: FC(F)(F)c1cccc(CN2CCC(c3cc(-c4cccs4)n[nH]3)CC2)c1
measured_target: Rap guanine nucleotide exchange factor 3 (Homo sapiens) (UniProt O95398)
quantity_kind: outcome
reported_result: inactive
//
compound: COc1ccc(OC)c(CNC(=O)CCCc2cn(C)c3ccccc23)c1
measured_target: Rap guanine nucleotide exchange factor 3 (Homo sapiens) (UniProt O95398)
quantity_kind: outcome
reported_result: inactive
//
compound: OC(c1ccc2ccccc2n1)c1c(Cl)cccc1Cl (stereo unspecified)
measured_target: Rap guanine nucleotide exchange factor 3 (Homo sapiens) (UniProt O95398)
quantity_kind: outcome
reported_result: inactive
//
compound: COc1ccc(Oc2cn[nH]c2-c2ccc(OC)cc2O)cc1
measured_target: Rap guanine nucleotide exchange factor 3 (Homo sapiens) (UniProt O95398)
quantity_kind: outcome
reported_result: inactive
//
compound: Cc1cc2c(N)cccc2nn1
measured_target: Rap guanine nucleotide exchange factor 3 (Homo sapiens) (UniProt O95398)
quantity_kind: outcome
reported_result: inactive
//
compound: COc1cc(NC2c3ncccc3C(=O)N2Cc2ccco2)cc(OC)c1 (stereo unspecified)
measured_target: Rap guanine nucleotide exchange factor 3 (Homo sapiens) (UniProt O95398)
quantity_kind: outcome
reported_result: inactive
//
compound: O=C(CN1C(=O)N/C(=C\c2ccccc2OCc2ccc(C(=O)O)cc2)C1=O)Nc1ccc(F)cc1
measured_target: Rap guanine nucleotide exchange factor 3 (Homo sapiens) (UniProt O95398)
quantity_kind: outcome
reported_result: inactive
//
compound: Cc1ccc(C(=O)/C=C/c2cc(Br)cc(Br)c2O)o1
measured_target: Rap guanine nucleotide exchange factor 3 (Homo sapiens) (UniProt O95398)
quantity_kind: outcome
reported_result: inactive
//
compound: O=C(O)Cc1ccc(C(=O)c2ccc(Cl)cc2Cl)s1
measured_target: Rap guanine nucleotide exchange factor 3 (Homo sapiens) (UniProt O95398)
quantity_kind: outcome
reported_result: inactive
//
compound: Cc1nn(-c2c(Cl)cc(Cl)cc2Cl)c(=O)c2ccccc12
measured_target: Rap guanine nucleotide exchange factor 3 (Homo sapiens) (UniProt O95398)
quantity_kind: outcome
reported_result: inactive
//
compound: O=C1CCC[C@@H]2CC(N(Cc3cc4ccccc4s3)c3ccccc3)C[C@@H]3CCN1[C@H]23 (stereo partly specified)
measured_target: Rap guanine nucleotide exchange factor 3 (Homo sapiens) (UniProt O95398)
quantity_kind: outcome
reported_result: inactive
